Attribution: ChEMBL document CHEMBL1157539

tested on: Plasmodium falciparum; assay: GSK_TCMDC: Inhibition of Plasmodium falciparum Dd2 in whole red blood cells, using parasite LDH activity as an index of growth. Test compounds present at 2uM; format: functional
Overview of recorded Inhibition for various compounds
quantity measured: Inhibition

| compound | test result |
| --- | --- |
| CCCCOC(=O)C1=C(C)NC2=C(C(=O)CC(c3ccc(OC)c(OC)c3)C2)C1c1ccc(O)cc1 (stereo not given) | 75% |
| Cc1ccc([S+]([O-])Cc2ccc(Cl)cc2)cc1 (stereo not given) | 5% |
| O=C(Nc1cc(C(F)(F)F)cc(C(F)(F)F)c1)c1cccc([N+](=O)[O-])c1 | 15% |
| Cc1ccccc1C1CCN(C2CCC(NC(=O)/C=C/c3cc(F)ccc3C(F)(F)F)CC2)CC1 (stereo not given) | 25% |
| Cc1cc(NCCC(=O)NCCOc2ccccc2)nc(NCCc2ccccc2)n1.O=C(O)C(F)(F)F | 9% |
| O=C(Nc1cccc(-c2cccc(-c3nc4cc(F)ccc4[nH]3)c2)c1)c1ccncc1 | 24% |
| CN1CCc2cc(I)c(O)cc2C1Cc1ccccc1Cl.Cl (stereo not given) | 96% |
| COCCCN=C(S)NN=C(C)c1ccccn1 | 99% |
| Cc1cccc(C)c1CNc1nc(N2CCOCC2)cc2c(C)c(C)[nH]c12.Cl | 64% |
| CCN1CCN(c2cc(C)c3cc(NC(=O)c4cccc(Cl)c4)ccc3n2)CC1 | 58% |
